Numbers sourced from patent US20230263822A1.

assay: Liver function, ALT, AST, bilirubin in cynomolgus monkeys (Example 45); assay type: in vivo; conditions: plasma; day −14; escalating dose regimen
Catalogue of Bilirubin values
Field note: include the unit after the figure.

- Substance: "ISIS 416838: MOE gapmer, nucleobases 1018 to 1042 of SEQ ID NO: 1 (Table 6) (antisense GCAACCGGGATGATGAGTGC; MOE gapmer, wing and gap sizes not given here)"
  Result: "0.26 mg/dL"
- Substance: "ISIS 416864: MOE gapmer, nucleobases 1275 to 1318 of SEQ ID NO: 1 (Table 8) (antisense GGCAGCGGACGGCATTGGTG; MOE gapmer, wing and gap sizes not given here)"
  Result: "0.31 mg/dL"

State the recorded Bilirubin for this entry: ISIS 416858: MOE gapmer, nucleobases 1275 to 1318 of SEQ ID NO: 1 (Table 8) (antisense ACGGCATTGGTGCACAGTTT; MOE gapmer, wing and gap sizes not given here)
0.27 mg/dL

Field request: Bilirubin | item: ISIS 416850: MOE gapmer, nucleobases 1275 to 1318 of SEQ ID NO: 1 (Table 8) (antisense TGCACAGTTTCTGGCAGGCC; MOE gapmer, wing and gap sizes not given here)
0.21 mg/dL

Query: Bilirubin; subject: ISIS 417002: MOE gapmer, nucleobases 1275 to 1318 of SEQ ID NO: 1 (Table 8) (antisense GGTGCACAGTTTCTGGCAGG; MOE gapmer, wing and gap sizes not given here)
0.26 mg/dL

====

System: human Factor 11 mRNA
Assay: Dose-dependent inhibition of human Factor 11 in HepG2 cells, electroporation 123.46-10,000 nM (Example 31)
Type: cell-based
Settings: electroporation, 3,333.33 nM, approx. 16 hours, relative to untreated control cells
Procedure: Cells were plated at a density of 20,000 cells per well and transfected using electroporation with 123.46 nM, 370.37 nM, 1,111.11 nM, 3,333.33 nM and 10,000 nM concentrations of antisense oligonucleotide, as specified in Table 45. After a treatment period of approximately 16 hours, RNA was isolated from the cells and Factor 11 mRNA levels were measured by quantitative real-time PCR. […] Factor 11 mRNA levels were adjusted according to total RNA content, as measured by RIBOGREEN. […]
Strand notation (5' to 3'): a small letter for the sugar, then the base; units joined by * are phosphorothioate-linked, units joined directly phosphodiester-linked; [ ] holds rarer units or linkages, { } end groups; capitals alone tell only the bases. e = 2'-O-(2-methoxyethyl) (MOE); [5mC] = 5-methylcytosine; d = 2'-deoxy (DNA)
# Percent inhibition of Factor 11 mRNA at 3,333.33 nM annotations
Field: numeric (%). Do not append units.

Consider the substance shown here: 416851 (antisense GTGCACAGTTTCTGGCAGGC; 5-10-5 gapmer, further chemistry not given here) [compound 416851] What is its recorded Percent inhibition of Factor 11 mRNA at 3,333.33 nM?
64

Please give the measured Percent inhibition of Factor 11 mRNA at 3,333.33 nM for this substance: 416856 (antisense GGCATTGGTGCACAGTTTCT; 5-10-5 gapmer, further chemistry not given here) [compound 416856]
59

For 445498 (antisense eG*eG*eT*eG*e[5mC]*eA*d[5mC]*dA*dG*dT*dT*dT*d[5mC]*dT*eG*eG*e[5mC]*eA*eG*eG) [compound 445498] , what is its reported Percent inhibition of Factor 11 mRNA at 3,333.33 nM?
50
